Listed below: % donor responder (>2), SEB assay, IL-2 release values for each entry.
- TESTED TARGET: T1, human OX40 on cells (human, UniProt P43489 29-277)
- T1 sequence (looked up): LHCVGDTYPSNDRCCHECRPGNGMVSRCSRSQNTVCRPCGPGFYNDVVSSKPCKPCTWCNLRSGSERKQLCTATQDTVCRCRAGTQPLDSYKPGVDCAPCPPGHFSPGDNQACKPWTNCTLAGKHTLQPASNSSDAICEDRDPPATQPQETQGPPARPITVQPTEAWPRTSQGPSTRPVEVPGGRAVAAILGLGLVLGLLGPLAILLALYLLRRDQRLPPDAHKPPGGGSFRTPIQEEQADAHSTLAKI
- METHOD: cell-based or functional assay
Respond numerically; units are % and should not be typed.

Completed entries (count: 3):
{"columns": ["BINDER", "REPORTED"],
 "data": [
  ["106-222 IgG1 (antibody, V domains shown) VH: QVQLVQSGSELKKPGASVKVSCKASGYTFTDYSMHWVRQAPGQGLKWMGWINTETGEPTYADDFKGRFVFSLDTSVSTAYLQISSLKAEDTAVYYCANPYYDYVSYYAMDYWGQGTTVTVSS VL: DIQMTQSPSSLSASVGDRVTITCKASQDVSTAVAWYQQKPGKAPKLLIYSASYLYTGVPSRFSGSGSGTDFTFTISSLQPEDIATYYCQQHYSTPRTFGQGTKLEIKR", 6],
  ["9B12 IgG1 (antibody, V domains shown, also called OX40mab24) VH: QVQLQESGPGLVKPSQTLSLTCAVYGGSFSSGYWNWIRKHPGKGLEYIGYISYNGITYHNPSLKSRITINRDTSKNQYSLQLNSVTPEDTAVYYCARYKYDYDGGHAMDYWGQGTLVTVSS VL: DIQMTQSPSSLSASVGDRVTITCRASQDISNYLNWYQQKPGKAPKLLIYYTSKLHSGVPSRFSGSGSGTDYTLTISSLQPEDFATYYCQQGSALPWTFGQGTKVEIKR", 50],
  ["7H11 IgG1 LALA (antibody, V domains shown) VH: QVQLVQSGAEVKKPGASVKVSCKASGYTFTRYYMHWVRQAPGQGLEWMGWIYPGDGSTKYAQKFQGRVTMTRDTSISTAYMELSRLRSDDTAVYYCAREYGNYDYWGQGTLVTVSS VL: DIVMTQSPDSLAVSLGERATINCKSSQSLLNSGNQKNYLAWYQQKPGQPPKLLIYGASTRESGVPDRFSGSGSGTDFTLTISSLQAEDVAVYYCQNDHSYPYTFGQGTKLEIKR", 6]
]}

Now look at this one.
Q: I'd like to know its % donor responder (>2), SEB assay, IL-2 release. The binder in question is 11D4 IgG2 (antibody, V domains shown) VH: EVQLVESGGGLVQPGGSLRLSCAASGFTFSSYSMNWVRQAPGKGLEWVSYISSSSSTIDYADSVKGRFTISRDNAKNSLYLQMNSLRDEDTAVYYCARESGWYLFDYWGQGTLVTVSS VL: DIQMTQSPSSLSASVGDRVTITCRASQGISSWLAWYQQKPEKAPKSLIYAASSLQSGVPSRFSGSGSGTDFTLTISSLQPEDFATYYCQQYNSYPPTFGGGTKVEIKR
A: 18
